# System: human Ishikawa cells
# protocol.text: Alkaline phosphatase activity in human endometrial adenocarcinoma Ishikawa cells
# Format: cell-based
# measurement.context: Homo sapiens, 120 h, 5 days, 1 nM E2, read-out: Inhibition of 1 nM E2-induced stimulation of alkaline phosphatase IC50
pIC50: −log10 of the molar value.
property.name: pIC50

molecule | value
CC1=C(c2ccc(O)cc2)[C@H](c2ccc(OCCN3CCCCC3)cc2)Oc2cc(O)ccc21.Cl [EM-652.HCl] | 8.82

* * *

Let's look at some compounds and their measured Serum ALP.
# Tested on: ovariectomized female rats
# protocol.text: Prevention of bone loss, body fat, serum cholesterol and ALP, 3-month treatment of OVX rats (Example 5A, experiment 1)
# Type: in vivo, Sprague-Dawley rats
# measurement.context: OVX rats, 3 months
property.name: Serum ALP (IU/L)

compound | unit.tag | value
CC1=C(c2ccc(O)cc2)[C@H](c2ccc(OCCN3CCCCC3)cc2)Oc2cc(O)ccc21.Cl [EM-652.HCl] | IU/L | 91
CC/C(=C(\c1ccccc1)c1ccc(/C=C/C(=O)O)cc1)c1ccccc1 [GW 5638] | IU/L | 72
C[C@]12CC[C@@H]3c4ccc(O)cc4CC[C@H]3[C@@H]1CC[C@@H]2O [E2, 17β-estradiol, reference compound] | IU/L | 59
C[C@]12CC[C@H](O)CC1=CC[C@@H]1[C@@H]2CC[C@]2(C)C(=O)CC[C@@H]12 [DHEA, dehydroepiandrosterone, reference compound] | IU/L | 224

* * *

Let's look at some molecules and their measured Endometrial epithelium thickness.
# Test system: endometrial epithelium
# protocol.text: Thickness of uterine (endometrial) epithelial cells in the mice of Example 8
# Type: in vivo, nude mice
# measurement.context: OVX + antiestrogen 200 μg daily, no estrone, 161 days
Marks after values point to notes of the source that are not given here.
property.name: Endometrial epithelium thickness

molecule | property.name | value
Cl.O=C(c1ccc(OCCN2CCCCC2)cc1)c1c(-c2ccc(O)cc2)sc2cc(O)ccc12 | Endometrial epithelium thickness | 22.33^a ± 0.05 μm
CC/C(=C(/c1ccc(OCCN(C)C)cc1)c1cccc(O)c1)c1ccccc1 | Endometrial epithelium thickness | 18.50 ± 0.07 μm
CC1=C(c2ccc(O)cc2)[C@H](c2ccc(OCCN3CCCCC3)cc2)Oc2cc(O)ccc21.Cl [EM-652.HCl] | Endometrial epithelium thickness | 20.79 ± 0.10 μm
CC/C(=C(\c1ccccc1)c1ccc(/C=C/C(=O)O)cc1)c1ccccc1 | Endometrial epithelium thickness | 22.22^a ± 0.05 μm
